Reference for the values: ChEMBL document CHEMBL5338725

target: Toll-like receptor 4 (Homo sapiens) (UniProt O00206); assay: Agonist activity at human TLR4 in HEK-Blue hTLR4 cells at 0.1 to 25 uM incubated for 18 hrs by SEAP reporter gene based Quanti-blue assay; assay type: cell-based; details: filed as agonist, dose 0.1-25 µM
Sequence (O00206 whole entry): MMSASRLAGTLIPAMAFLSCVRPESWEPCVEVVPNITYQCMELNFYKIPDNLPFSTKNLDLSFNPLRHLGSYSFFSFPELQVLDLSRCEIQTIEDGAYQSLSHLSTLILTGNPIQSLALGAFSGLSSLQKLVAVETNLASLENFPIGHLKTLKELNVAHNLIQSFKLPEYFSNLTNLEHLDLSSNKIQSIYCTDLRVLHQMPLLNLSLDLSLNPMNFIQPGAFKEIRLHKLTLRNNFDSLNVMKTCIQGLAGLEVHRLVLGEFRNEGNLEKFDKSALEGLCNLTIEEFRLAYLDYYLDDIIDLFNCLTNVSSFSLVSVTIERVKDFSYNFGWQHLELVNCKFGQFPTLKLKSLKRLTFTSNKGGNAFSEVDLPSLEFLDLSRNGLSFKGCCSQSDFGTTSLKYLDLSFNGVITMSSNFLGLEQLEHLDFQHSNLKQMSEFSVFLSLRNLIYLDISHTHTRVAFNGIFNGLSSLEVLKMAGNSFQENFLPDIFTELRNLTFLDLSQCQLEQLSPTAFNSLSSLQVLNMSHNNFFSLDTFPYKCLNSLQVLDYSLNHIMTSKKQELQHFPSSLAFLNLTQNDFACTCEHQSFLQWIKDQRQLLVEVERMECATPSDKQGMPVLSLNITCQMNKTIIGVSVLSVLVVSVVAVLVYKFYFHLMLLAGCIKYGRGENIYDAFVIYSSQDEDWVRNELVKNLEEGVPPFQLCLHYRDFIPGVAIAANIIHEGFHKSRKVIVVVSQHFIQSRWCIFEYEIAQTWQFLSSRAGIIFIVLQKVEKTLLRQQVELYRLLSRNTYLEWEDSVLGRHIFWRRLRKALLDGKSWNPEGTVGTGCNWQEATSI
The source made the active and inactive calls. The rule behind the calls is not given here.
TEST_READOUT: Activity

* CCCCCCCCCCCCCC(=O)O[C@@H]1O[C@H](CO)[C@@H](OP(=O)([O-])[O-])[C@H](OC(=O)CCCCCCCCCCCCC)[C@H]1NC(=O)CCCCCCCCCCC.[Na+].[Na+] | Active
* CCCCCCCCCCCC(=O)N[C@H]1[C@H](OC(=O)CCCCCCCCCCC)O[C@H](CO)[C@@H](OP(=O)([O-])[O-])[C@@H]1OC(=O)CCCCCCCCCCC.[Na+].[Na+] | Active
* CCCCCCCCCCCCCC(=O)N[C@H]1[C@H](OC(=O)CCCCCCCCCCCCC)O[C@H](CO)[C@@H](OP(=O)([O-])[O-])[C@@H]1OC(=O)CCCCCCCCCCCCC.[Na+].[Na+] | Active
* CCCCCCCCCCCC(=O)N[C@H]1[C@H](OC(=O)CCCCCCCCC)O[C@H](CO)[C@@H](OP(=O)([O-])[O-])[C@@H]1OC(=O)CCCCCCCCC.[Na+].[Na+] | Active
